Target: NACHT, LRR and PYD domains-containing protein 3 (Mus musculus) (UniProt Q8R4B8)
Sequence (Q8R4B8 whole entry, the tested form may be a part): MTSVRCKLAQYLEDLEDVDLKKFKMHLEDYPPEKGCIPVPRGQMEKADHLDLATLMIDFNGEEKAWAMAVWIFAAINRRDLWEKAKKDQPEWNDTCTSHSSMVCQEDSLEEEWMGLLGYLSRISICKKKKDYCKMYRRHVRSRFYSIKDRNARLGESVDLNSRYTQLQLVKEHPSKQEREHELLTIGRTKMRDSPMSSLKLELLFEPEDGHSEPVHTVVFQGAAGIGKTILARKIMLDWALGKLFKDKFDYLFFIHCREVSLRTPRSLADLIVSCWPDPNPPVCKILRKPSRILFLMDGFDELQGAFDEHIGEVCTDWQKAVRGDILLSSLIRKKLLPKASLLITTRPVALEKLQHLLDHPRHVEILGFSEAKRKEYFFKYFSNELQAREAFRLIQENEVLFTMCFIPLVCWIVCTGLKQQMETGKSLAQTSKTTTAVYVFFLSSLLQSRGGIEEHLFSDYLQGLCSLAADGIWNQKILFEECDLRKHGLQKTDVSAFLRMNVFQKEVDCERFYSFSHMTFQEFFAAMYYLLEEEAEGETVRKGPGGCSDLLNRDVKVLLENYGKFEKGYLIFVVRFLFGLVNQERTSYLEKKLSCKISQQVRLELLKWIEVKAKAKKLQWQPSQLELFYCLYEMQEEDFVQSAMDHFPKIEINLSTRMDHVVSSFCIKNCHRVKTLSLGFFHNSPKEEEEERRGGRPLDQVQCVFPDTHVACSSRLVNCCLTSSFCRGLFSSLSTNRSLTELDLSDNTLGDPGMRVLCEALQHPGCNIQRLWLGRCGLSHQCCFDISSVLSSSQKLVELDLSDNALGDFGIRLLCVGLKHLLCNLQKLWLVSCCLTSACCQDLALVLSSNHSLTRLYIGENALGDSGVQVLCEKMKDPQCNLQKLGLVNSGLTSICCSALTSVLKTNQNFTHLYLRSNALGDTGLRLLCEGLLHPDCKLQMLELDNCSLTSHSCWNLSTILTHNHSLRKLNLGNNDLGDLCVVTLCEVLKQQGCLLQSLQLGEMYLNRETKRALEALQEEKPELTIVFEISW
Test: Inhibition of NLRP3 inflammasome activation in LPS-treated mouse BMDM cells assessed as Bz-ATP-stimulated IL-1beta level at 1 uM incubated for 30 mins followed by Bz-ATP stimulation for 30 mins by ELISA method
Assay type: cell-based
Settings: time 60.0 min
ENDPOINT_NAME: Activity (pg/mL)
Number only, in pg/mL; omit the unit.

What value of Activity on NACHT, LRR and PYD domains-containing protein 3 (Mus musculus) (UniProt Q8R4B8) does Nc1ccc(S(=O)(=O)N2CCC[C@H]2C(=O)Nc2c3c(cc4c2CCC4)CCC3)cc1 have?
165

What Activity appears in the records for this compound with NACHT, LRR and PYD domains-containing protein 3 (Mus musculus) (UniProt Q8R4B8)? O=C(Nc1c2c(cc3c1CCC3)CCC2)[C@H](CNS(=O)(=O)c1ccc([N+](=O)[O-])cc1)c1ccccc1
156

Could you now look at the following compound, please?
Record NCCCC[C@H](NS(=O)(=O)c1ccc([N+](=O)[O-])cc1)C(=O)Nc1c2c(cc3c1CCC3)CCC2 : what is its Activity with NACHT, LRR and PYD domains-containing protein 3 (Mus musculus) (UniProt Q8R4B8)?
149

* * *

Experiment: Metabolic stability in human liver microsomes assessed as half life measured per mg protein at 1 uM measured upto 60 mins by LC-MS/MS analysis
Format: ADME, Microsome
ENDPOINT_NAME: half-life at 1 µM (min)
Number only, in min; omit the unit.

// query half-life at 1 µM value for entry CC(C)[C@H](NS(=O)(=O)c1ccc([N+](=O)[O-])cc1)C(=O)Nc1c2c(cc3c1CCC3)CCC2
30.5

Request the reported half-life at 1 µM associated with Nc1ccc(S(=O)(=O)N2Cc3ccccc3C[C@H]2C(=O)Nc2c3c(cc4c2CCC4)CCC3)cc1
48.3

Item Nc1ccc(S(=O)(=O)N[C@@H](Cc2ccc(O)cc2)C(=O)Nc2c3c(cc4c2CCC4)CCC3)cc1 has what recorded half-life at 1 µM?
46.2

Which half-life at 1 µM value is on record for CCOc1ccc2ccc(=O)oc2c1 ?
8.3

For the next question, use this compound.
Would you kindly share the measured half-life at 1 µM for CC(C)NCC(O)COc1cccc2ccccc12 (stereo not given) ?
47

* * *

Assay: Cmax in C57BL/6 mouse at 25 mg/kg, ip measured for 0.083 to 24 hrs by LC-MS/MS analysis
Assay type: ADME, organism-based
Parameters: time upper 24 hrs, dose 25 mg/kg, time lower 0.083 hrs, route ip
Conditions: in vivo
ENDPOINT_NAME: Cmax
Quick note: unit goes after the number.

For CC(C)[C@H](NS(=O)(=O)c1ccc([N+](=O)[O-])cc1)C(=O)Nc1c2c(cc3c1CCC3)CCC2 , what is its reported Cmax?
1670 ng/mL

* * *

Assay: Metabolic stability in human liver microsomes assessed as intrinsic clearance measured per mg protein at 1 uM measured upto 60 mins by LC-MS/MS analysis
Assay type: ADME, Microsome
Conditions: read-out: CLH
ENDPOINT_NAME: microsomal CLint at 1 µM (µL/min/mg)
Quick note: give the figure in µL/min/mg, leave out the unit.

Some entries whose results are on file:
Please look up its microsomal CLint at 1 µM: CCOc1ccc2ccc(=O)oc2c1
168

What measured microsomal CLint at 1 µM goes with CC(C)[C@H](NS(=O)(=O)c1ccc([N+](=O)[O-])cc1)C(=O)Nc1c2c(cc3c1CCC3)CCC2 ?
45.8

Others:
Looking for the measured microsomal CLint at 1 µM of Nc1ccc(S(=O)(=O)N2Cc3ccccc3C[C@H]2C(=O)Nc2c3c(cc4c2CCC4)CCC3)cc1 , can you help?
28.7

Recorded microsomal CLint at 1 µM of Nc1ccc(S(=O)(=O)N[C@@H](Cc2ccc(O)cc2)C(=O)Nc2c3c(cc4c2CCC4)CCC3)cc1 , please.
31.9
